Experiment: Therapeutic index, ratio of TC50 for human Hep2 cells to IC50 for Parainfluenza virus type 3
Format: cell-based, HEp-2
Stated conditions: read-out: TI
Metric: selectivity ratio
Give the figure by itself; no unit, no explanation.

Inquiry: # return recorded selectivity ratio for entry CC(=O)O[C@@H]1[C@@H]2[C@H](Cc3occc3[C@]2(C)O)[C@@]2(C)[C@@H](OC(C)=O)CCC(C)(C)[C@]2(O)[C@H]1OC(C)=O
Reply text: 19.1

Inquiry: # return recorded selectivity ratio for entry CC1(C)CC[C@H](O)[C@]2(C)[C@H]3Cc4occc4[C@H]4C(=O)O[C@@H](C[C@@]12O)[C@@H]43
Reply text: 3

Inquiry: # return recorded selectivity ratio for entry CC(=O)O[C@@H]1[C@@H]2[C@H](Cc3occc3[C@@]2(C)O)[C@@]2(C)[C@@H](OC(C)=O)CCC(C)(C)[C@]2(O)[C@H]1OC(C)=O
Reply text: 16

###

Below: a set of entries, each annotated with reported CC50.
Experiment: Cytotoxicity against human Hep2 cells
Type: cell-based, HEp-2
Stated conditions: read-out: LC50 (the source's name)
Field format: number, assumed µg/mL, no unit text.

Use the examples below as a reference point.
INSERT INTO assay_data (compound, readout_units, endpoint_result) VALUES
  ('CO[C@]1(C)c2ccoc2C[C@H]2C1[C@@H](OC(C)=O)[C@H](OC(C)=O)[C@@]1(O)C(C)(C)CC[C@H](OC(C)=O)[C@]21C (stereo partly drawn)', 'µg/mL', 136),
  ('CC(=O)O[C@@H]1[C@@H]2[C@H](Cc3occc3[C@]2(C)O)[C@@]2(C)[C@@H](OC(C)=O)CCC(C)(C)[C@]2(O)[C@H]1OC(C)=O', 'µg/mL', 182);

Now turn to the next compound.
Inquiry: # return recorded CC50 for entry CC(=O)O[C@@H]1[C@@H]2[C@H](Cc3occc3[C@@]2(C)O)[C@@]2(C)[C@@H](OC(C)=O)CCC(C)(C)[C@]2(O)[C@H]1OC(C)=O
Reply text: 165

###

Experiment: Therapeutic index, ratio of TC50 for human Hep2 cells to IC50 for Parainfluenza virus type 3
Format: cell-based, HEp-2
Stated conditions: read-out: TI
Below: a set of entries, each annotated with reported selectivity ratio.

Use the examples below as a reference point.
INSERT INTO measurements (compound, endpoint_result) VALUES
  ('C=C1c2ccoc2C[C@H]2[C@H]1[C@@H](OC(C)=O)[C@H](OC(C)=O)[C@@]1(O)C(C)(C)CC[C@H](OC(C)=O)[C@]21C', 23.9),
  ('CC[C@H](/C=C/[C@@H](C)[C@H]1CC[C@H]2[C@@H]3CC=C4C[C@@H](O)CC[C@]4(C)[C@H]3CC[C@]12C)C(C)C', 3.6);

Inquiry: # return recorded selectivity ratio for entry CO[C@]1(C)c2ccoc2C[C@H]2C1[C@@H](OC(C)=O)[C@H](OC(C)=O)[C@@]1(O)C(C)(C)CC[C@H](OC(C)=O)[C@]21C (stereo partly drawn)
Reply text: 17.5

###

Below: a set of entries, each annotated with reported CC50.
Experiment: Cytotoxicity against human Hep2 cells
Format: cell-based, HEp-2
Stated conditions: read-out: LC50 (the source's name)
The answer consists of two parts: a number and, after it, its unit.

Use the examples below as a reference point.
INSERT INTO results (compound, endpoint_result) VALUES
  ('CC1(C)CC[C@H](O)[C@]2(C)[C@H]3Cc4occc4[C@H]4C(=O)O[C@@H](C[C@@]12O)[C@@H]43 [CAESALMIN G]', '44.7 µg/mL'),
  ('C=C1c2ccoc2C[C@H]2[C@H]1[C@@H](OC(C)=O)[C@H](OC(C)=O)[C@@]1(O)C(C)(C)CC[C@H](OC(C)=O)[C@]21C [CAESALAMIN C]', '196 µg/mL');

Now turn to the next compound.
Inquiry: # return recorded CC50 for entry CC[C@H](/C=C/[C@@H](C)[C@H]1CC[C@H]2[C@@H]3CC=C4C[C@@H](O)CC[C@]4(C)[C@H]3CC[C@]12C)C(C)C [STIGMASTEROL]
Reply text: 137 µg/mL
